Below, each entry is listed alongside its reported GI50.
Test system: KM-20L2
Assay: NCI tumour cell line growth inhibition, 48 h
Activity calls are given as the source filed them. Cut-off read from the data, not from the text of the source: active = GI50 up to about 1.1 µM and inactive = higher.

- compound: "CCN(CC)CC(=O)NC1c2ccccc2Oc2ccccc21"
  GI50: "> 100 µM (inactive)"
- compound: "Cc1nc2ccc(NCCN(C)C)c3c(=O)c4ccccc4n1c23"
  GI50: "1.99 µM (inactive)"
- compound: "CCCCCCCCCCCC(=O)OC[C@H](C[As](=O)(O)O)OC(=O)CCCCCCCCCCC"
  GI50: "6.04 µM (inactive)"
- compound: "OC1OC2COC(c3ccccc3)OC2C(O)C1O (configuration not stated)"
  GI50: "> 100 µM (inactive)"
- compound: "COc1ccc(S(=O)(=O)N/N=C(\\C)CN2C(=O)c3ccccc3C2=O)cc1"
  GI50: "> 100 µM (inactive)"
- compound: "CS(=O)(=O)C1S(=O)(=O)OCCOS1(=O)=O"
  GI50: "> 100 µM (inactive)"
- compound: "CC(=O)n1cc(CC(C)O)c(=O)[nH]c1=O (configuration not stated)"
  GI50: "> 100 µM (inactive)"
- compound: "CNC(=O)OCc1nc(SC)n(C)c1COC(=O)NC"
  GI50: "177 µM (inactive)"
- compound: "O=C(Nc1ccccc1)C(=O)C(C(=O)c1ccccc1F)C1OC(=O)c2ccccc21 (configuration not stated)"
  GI50: "33.6 µM (inactive)"
- compound: "CC(=O)NC(CCCCN(Cc1ccccc1)C(=O)N(CCCl)N=O)C(=O)NCc1ccccc1 (configuration not stated)"
  GI50: "> 52.8 µM (inactive)"
- compound: "Cc1cn(C2CC(O)C(COC(=O)c3ccccc3)O2)c(=O)[nH]c1=O (configuration not stated)"
  GI50: "> 100 µM (inactive)"
- compound: "COc1ccc(-n2/c(=N/C(=S)N(C)C)ss/c2=N\\C(=S)N(C)C)cc1"
  GI50: "27.7 µM (inactive)"
